Below, each of the molecules is paired with its reported minimal effective concentration value.
Test system: Eimeria tenella
Test: Anticoccidial activity which controlled infection by Eimeria tenella in Leghorn cockerels
Format: functional
Conditions: read-out: MEC
measured_metric: minimal effective concentration (µg/mL)

INSERT INTO results (molecule, study_system, measured_metric, comparison_sign, experimental_result) VALUES
  ('Cc1cc(-n2ncc(=O)[nH]c2=O)cc(C)c1C(O)c1ccc(Cl)cc1 (stereo not given)', 'Eimeria tenella', 'minimal effective concentration', '=', 30),
  ('CC(=O)c1ccc(-n2ncc(=O)[nH]c2=O)cc1Cl', 'Eimeria tenella', 'minimal effective concentration', '=', 125),
  ('CCCC(=O)c1ccc(-n2ncc(=O)[nH]c2=O)cc1', 'Eimeria tenella', 'minimal effective concentration', '>', 60),
  ('Cc1cc(C)c(C(=O)c2ccc(-n3ncc(=O)[nH]c3=O)cc2)c(C)c1', 'Eimeria tenella', 'minimal effective concentration', '>', 250),
  ('O=C(c1ccc(Cl)cc1)c1ccc(-n2ncc(=O)[nH]c2=O)cc1', 'Eimeria tenella', 'minimal effective concentration', '=', 30),
  ('Cc1cc(-n2ncc(=O)[nH]c2=O)ccc1C(=O)c1ccc(C#N)cc1', 'Eimeria tenella', 'minimal effective concentration', '=', 125),
  ('Cc1ccc(C(=O)c2ccc(-n3ncc(=O)[nH]c3=O)cc2)cc1', 'Eimeria tenella', 'minimal effective concentration', '>', 250),
  ('O=C(c1ccc(Cl)cc1Cl)c1ccc(-n2ncc(=O)[nH]c2=O)cc1Cl', 'Eimeria tenella', 'minimal effective concentration', '=', 4),
  ('Cc1cc(-n2ncc(=O)[nH]c2=O)ccc1C(O)c1ccccc1 (stereo not given)', 'Eimeria tenella', 'minimal effective concentration', '=', 30),
  ('O=c1cnn(-c2ccc(-c3ccc4oc5ccc(Cl)cc5c(=O)c4c3)cc2)c(=O)[nH]1', 'Eimeria tenella', 'minimal effective concentration', '>', 250);

###

Experiment: Plasma half-life of the compound.
Assay type: ADME
Below, each of the compounds is paired with its reported half-life value.
measured_metric: half-life (h)

INSERT INTO measurements (smiles_structure, experimental_result) VALUES
  ('Cc1cc(-n2ncc(=O)[nH]c2=O)ccc1C(=O)c1ccc(Cl)cc1', 13),
  ('Cc1cc(-n2ncc(=O)[nH]c2=O)cc(Cl)c1C(=O)c1ccc(Cl)cc1', 21),
  ('O=C(c1ccc(Cl)cc1)c1ccc(-n2ncc(=O)[nH]c2=O)cc1Cl', 20),
  ('Cc1cc(-n2ncc(=O)[nH]c2=O)ccc1C(=O)c1ccc(Cl)cc1Cl', 45);

###

Experiment: Apparent pKa value was measured in 2:1 DMF/H2O.
Assay type: physicochemical
measured_metric: pH1/2

INSERT INTO measurements (smiles_structure, experimental_result) VALUES
  ('Cc1cc(-n2ncc(=O)[nH]c2=O)ccc1C(=O)c1ccc(C#N)cc1', 7.08),
  ('CC(=O)c1ccc(-n2ncc(=O)[nH]c2=O)cc1', 6.53),
  ('Cc1cc(C)c(C(=O)c2ccc(-n3ncc(=O)[nH]c3=O)cc2)c(C)c1', 7.16),
  ('O=C(c1ccccc1)c1ccc(-n2ncc(=O)[nH]c2=O)cc1', 7.79),
  ('O=C(c1ccccc1)c1ccc(-n2ncc(=O)[nH]c2=O)cc1Cl', 7.04),
  ('Cc1cc(-n2ncc(=O)[nH]c2=O)ccc1C(=O)c1ccc(Cl)cc1', 7.6),
  ('Cc1cc(-n2ncc(=O)[nH]c2=O)ccc1C(=O)c1ccccc1Cl', 7.08),
  ('O=C(c1ccc(Cl)cc1)c1ccc(-n2ncc(=O)[nH]c2=O)cc1Cl', 7.16);

###

Test system: Eimeria tenella
Experiment: Anticoccidial activity which controlled infection by Eimeria tenella in Leghorn cockerels
Assay type: functional
Details: read-out: MEC
Below, each of the compounds is paired with its reported minimal effective concentration value.
measured_metric: minimal effective concentration (µg/mL)

INSERT INTO measurements (compound, comparison_sign, experimental_result) VALUES
  ('O=C(c1ccccc1)c1ccc(-n2ncc(=O)[nH]c2=O)cc1', '=', 60),
  ('Cc1cc(-n2ncc(=O)[nH]c2=O)ccc1C(=O)c1ccccc1', '=', 8),
  ('Cc1cc(-n2ncc(=O)[nH]c2=O)cc(Cl)c1C(=O)c1ccc(Cl)cc1', '=', 8),
  ('Cc1cc(-n2ncc(=O)[nH]c2=O)cc(C)c1C(=O)c1ccc(Cl)cc1', '=', 15),
  ('COc1ccc(C(=O)c2ccc(-n3ncc(=O)[nH]c3=O)cc2)cc1', '=', 125),
  ('CC(=O)c1ccc(-n2ncc(=O)[nH]c2=O)cc1', '>', 250),
  ('O=c1cnn(-c2ccc(C(O)c3ccc(Cl)cc3)c(Cl)c2)c(=O)[nH]1 (centres undefined)', '=', 2),
  ('O=C(c1ccccc1)c1ccc(-n2ncc(=O)[nH]c2=O)cc1Cl', '=', 15),
  ('O=C(c1ccccc1)c1cccc(-n2ncc(=O)[nH]c2=O)c1', '>', 250),
  ('Cc1cc(-n2ncc(=O)[nH]c2=O)ccc1Cc1ccccc1', '=', 30),
  ('O=C(c1ccc(-n2ncc(=O)[nH]c2=O)cc1)c1cccs1', '>', 250),
  ('Cc1cc(-n2ncc(=O)[nH]c2=O)ccc1C(O)c1ccc(Cl)cc1 (centres undefined)', '=', 15),
  ('O=C(c1ccc(Cl)cc1)c1ccc(-n2ncc(=O)[nH]c2=O)cc1Cl', '=', 2),
  ('Cc1cc(-n2ncc(=O)[nH]c2=O)ccc1C(=O)c1ccc(Cl)cc1Cl', '=', 4),
  ('O=C(c1ccccc1)c1cc(-n2ncc(=O)[nH]c2=O)ccc1Cl', '>', 250),
  ('Cc1cc(Br)ccc1C(=O)c1ccc(-n2ncc(=O)[nH]c2=O)cc1Cl', '=', 8),
  ('Cc1cc(Cl)ccc1C(=O)c1ccc(-n2ncc(=O)[nH]c2=O)cc1C', '=', 15),
  ('Cc1cc(-n2ncc(=O)[nH]c2=O)ccc1C(=O)c1ccccc1Cl', '=', 60),
  ('Cc1cc(-n2ncc(=O)[nH]c2=O)ccc1C(=O)c1ccc(Cl)cc1', '=', 8);
